Test system: Plasmodium yoelii
assay info: Antimalarial activity against chloroquine-resistant Plasmodium yoelii N-67 infected in Swiss mouse assessed as mean survival time of host at 50 mg/kg/day, ip administered for 3 days (reference value: 9.20 +/- 0.44 days)
Type: functional
experimental context: route intraperitoneal
# MST annotations
Entry rule: numbers only, all in days.

Here is how some compounds turned out for MST.
Record CC(C)=CCCC1(C)C=Cc2c(O)c(C(=O)/C=C/c3cc(C=O)ccc3O)cc(CC=C(C)C)c2O1 (stereo not given) , field MST: 12.6

Record CC(C)=CCCC1(C)C=Cc2c(ccc(C(=O)/C=C/c3ccc(O)c(C=O)c3)c2O)O1 (stereo not given) , field MST: 12.33

Record CC(C)=CCCC1(C)C=Cc2ccc(O)c(C(=O)/C=C/c3cc(C=O)ccc3O)c2O1 (stereo not given) , field MST: 18.4

Record CC(C)=CCCC1(C)C=Cc2c(ccc(C(=O)/C=C/c3cc(C=O)ccc3O)c2O)O1 (stereo not given) , field MST: 17.4

---
Record CC(C)=CCCC1(C)C=Cc2ccc(O)c(C(=O)/C=C/c3ccc(O)c(C=O)c3)c2O1 (stereo not given) , field MST: 16.75

====

# pIC50 annotations
Test system: Plasmodium falciparum
assay info: Antimalarial activity against chloroquine-resistant Plasmodium falciparum K1 after 72 hrs by SYBR Green I-based fluorescence assay
Type: functional, organism-based
experimental context: K1, 72 h
Just so you know, pIC50 here is -log10 of the concentration in molar units; reply with that number alone.

Response field pIC50 (Plasmodium falciparum) for item CC(C)=CCCC1(C)C=Cc2c(ccc(C(=O)/C=C/c3cc(C=O)ccc3O)c2O)O1 (stereo not given) : 6.03

Response field pIC50 (Plasmodium falciparum) for item CC(C)=CCCC1(C)C=Cc2c(O)c(C(=O)/C=C/c3cc(C=O)ccc3O)cc(CC=C(C)C)c2O1 (stereo not given) : 6.44

Response field pIC50 (Plasmodium falciparum) for item CC(C)=CCCC1(C)C=Cc2c(ccc(C(=O)/C=C/c3ccc(O)c(C=O)c3)c2O)O1 (stereo not given) : 5.96

---
Response field pIC50 (Plasmodium falciparum) for item CC(C)=CCCC1(C)C=Cc2ccc(O)c(C(=O)/C=C/c3ccc(O)c(C=O)c3)c2O1 (stereo not given) : 7.07

====

# CC50 at 72 h annotations
assay info: Cytotoxicity against african green monkey Vero C1008 cells after 72 hrs by MTT assay
Format: cell-based
experimental context: chlorocebus sabaeus
Entry rule: numbers only, all in µM.

Here is how some molecules turned out for CC50 at 72 h.
Record CCO[C@H]1O[C@@H]2O[C@@]3(C)CC[C@H]4[C@H](C)CC[C@@H]([C@H]1C)[C@@]24OO3 , field CC50 at 72 h: 136

Record CC(C)=CCCC1(C)C=Cc2c(ccc(C(=O)/C=C/c3ccc(O)c(C=O)c3)c2O)O1 (stereo unspecified) , field CC50 at 72 h: 9.9

Record CC(C)=CCCC1(C)C=Cc2c(O)c(C(=O)/C=C/c3cc(C=O)ccc3O)cc(CC=C(C)C)c2O1 (stereo unspecified) , field CC50 at 72 h: 88.6

Record CC(C)=CCCC1(C)C=Cc2ccc(O)c(C(=O)/C=C/c3cc(C=O)ccc3O)c2O1 (stereo unspecified) , field CC50 at 72 h: 103

Record CC(C)=CCCC1(C)C=Cc2ccc(O)c(C(=O)/C=C/c3ccc(O)c(C=O)c3)c2O1 (stereo unspecified) , field CC50 at 72 h: 31.7

Switching to the query record.
Record CC(C)=CCCC1(C)C=Cc2c(ccc(C(=O)/C=C/c3cc(C=O)ccc3O)c2O)O1 (stereo unspecified) , field CC50 at 72 h: 22.2

====

assay info: Cmax in Sprague-Dawley rat at 50 mg/kg, po by LC-MS/MS analysis
Assay type: ADME, organism-based
Design: dose 50 mg/kg, route oral
experimental context: in vivo
measured quantity: Cmax (µg/mL)
Entry rule: numbers only, all in µg/mL.

Record CC(C)=CCCC1(C)C=Cc2c(ccc(C(=O)/C=C/c3cc(C=O)ccc3O)c2O)O1 (stereo unspecified) , field Cmax: 0.0783

====

assay info: AUC (0 to t) in Sprague-Dawley rat at 50 mg/kg, po by LC-MS/MS analysis
Assay type: ADME, organism-based
Design: dose 50 mg/kg, route oral
experimental context: plasma
measured quantity: AUC(0-t)
Please provide the amount together with its unit, number first.

Record CC(C)=CCCC1(C)C=Cc2c(ccc(C(=O)/C=C/c3cc(C=O)ccc3O)c2O)O1 (stereo unspecified) , field AUC(0-t): 389 ng·h/mL

====

assay info: Mean residence time in Sprague-Dawley rat at 50 mg/kg, po by LC-MS/MS analysis
Assay type: ADME, organism-based
Parameters: dose 50 mg/kg, route oral
experimental context: in vivo
measured quantity: MRT (h)
Entry rule: numbers only, all in h.

Record CC(C)=CCCC1(C)C=Cc2c(ccc(C(=O)/C=C/c3cc(C=O)ccc3O)c2O)O1 (stereo unspecified) , field MRT: 3.89

====

assay info: Elimination half life in Sprague-Dawley rat at 50 mg/kg, po by LC-MS/MS analysis
Type: ADME, organism-based
Parameters: dose 50 mg/kg, route oral
experimental context: in vivo, read-out: beta t1/2 (converted)
measured quantity: half-life (h)
Entry rule: numbers only, all in h.

Record CC(C)=CCCC1(C)C=Cc2c(ccc(C(=O)/C=C/c3cc(C=O)ccc3O)c2O)O1 (stereo unspecified) , field half-life: 2.32

====

assay info: Apparent oral clearance in Sprague-Dawley rat at 50 mg/kg by LC-MS/MS analysis
Format: ADME, organism-based
Design: dose 50 mg/kg, route oral
experimental context: in vivo
measured quantity: CL/F (mL/min/kg)
Entry rule: numbers only, all in mL/min/kg.

Record CC(C)=CCCC1(C)C=Cc2c(ccc(C(=O)/C=C/c3cc(C=O)ccc3O)c2O)O1 (stereo unspecified) , field CL/F: 2140

====

assay info: Apparent oral volume of distribution in Sprague-Dawley rat at 50 mg/kg by LC-MS/MS analysis
Type: ADME, organism-based
Design: dose 50 mg/kg, route oral
experimental context: in vivo
measured quantity: Vd/F (L/kg)
Entry rule: numbers only, all in L/kg.

Record CC(C)=CCCC1(C)C=Cc2c(ccc(C(=O)/C=C/c3cc(C=O)ccc3O)c2O)O1 (stereo unspecified) , field Vd/F: 433
